molecular target: VEGFR-2 (Homo sapiens); construct: lysed cells; endogenous in cells; assay: VEGFR-2 inhibitory properties by western blotting; type: cell-based; conditions: VEGFR-2 western blot band, normalised to beta actin, at 10 μM; control RQ 3.290
Sequence (P35968 20-1356): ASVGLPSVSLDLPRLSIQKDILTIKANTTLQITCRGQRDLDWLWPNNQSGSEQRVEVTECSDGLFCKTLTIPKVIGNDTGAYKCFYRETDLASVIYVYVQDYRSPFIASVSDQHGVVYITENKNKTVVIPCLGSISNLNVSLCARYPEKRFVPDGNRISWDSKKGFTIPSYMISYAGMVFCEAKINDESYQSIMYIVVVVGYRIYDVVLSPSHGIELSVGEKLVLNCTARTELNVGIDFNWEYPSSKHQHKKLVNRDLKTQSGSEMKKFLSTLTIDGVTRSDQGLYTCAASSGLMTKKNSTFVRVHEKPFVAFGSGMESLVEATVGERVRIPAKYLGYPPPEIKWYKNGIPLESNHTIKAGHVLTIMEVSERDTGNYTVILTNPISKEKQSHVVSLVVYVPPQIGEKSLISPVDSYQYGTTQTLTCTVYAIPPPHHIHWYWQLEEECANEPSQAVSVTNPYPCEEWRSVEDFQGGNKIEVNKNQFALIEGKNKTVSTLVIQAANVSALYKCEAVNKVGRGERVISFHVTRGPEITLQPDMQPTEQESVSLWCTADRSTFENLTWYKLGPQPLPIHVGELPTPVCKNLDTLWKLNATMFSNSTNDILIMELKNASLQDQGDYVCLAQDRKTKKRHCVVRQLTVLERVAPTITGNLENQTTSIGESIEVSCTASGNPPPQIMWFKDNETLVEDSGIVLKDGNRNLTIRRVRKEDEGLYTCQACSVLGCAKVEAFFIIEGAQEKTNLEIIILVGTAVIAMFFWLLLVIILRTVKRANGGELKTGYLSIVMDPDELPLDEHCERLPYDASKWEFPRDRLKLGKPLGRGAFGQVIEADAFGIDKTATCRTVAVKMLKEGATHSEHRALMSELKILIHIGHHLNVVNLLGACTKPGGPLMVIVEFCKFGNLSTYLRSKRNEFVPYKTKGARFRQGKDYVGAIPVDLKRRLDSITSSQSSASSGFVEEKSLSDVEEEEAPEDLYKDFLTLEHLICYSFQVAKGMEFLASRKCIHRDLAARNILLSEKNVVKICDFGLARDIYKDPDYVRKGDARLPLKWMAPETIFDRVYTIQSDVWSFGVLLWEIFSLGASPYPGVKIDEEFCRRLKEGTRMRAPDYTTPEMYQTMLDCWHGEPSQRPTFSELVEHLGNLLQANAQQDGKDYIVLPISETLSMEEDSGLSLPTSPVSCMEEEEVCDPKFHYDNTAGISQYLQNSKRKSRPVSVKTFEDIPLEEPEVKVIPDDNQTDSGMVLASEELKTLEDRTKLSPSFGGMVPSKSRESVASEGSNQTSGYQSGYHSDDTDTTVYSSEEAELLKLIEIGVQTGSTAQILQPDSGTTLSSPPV
Endpoint Label: Relative quantification (RQ)

* O=C(Nc1ccccc1)Nc1cccc(C(=O)/C=C2/C(=O)Nc3ccc(F)cc32)c1 [Compound 12c] | 0.472
* O=C(Nc1ccccc1)Nc1cccc(C(=O)/C=C2/C(=O)Nc3ccc(Cl)cc32)c1 [Compound 12e] | 0.538
* O=C(Nc1ccccc1)Nc1ccc(C(=O)/C=C2/C(=O)Nc3ccccc32)cc1 [Compound 12b] | 0.422

---

system: HCT116 (colon) carcinoma cell line; test: MTT antiproliferation assay, HCT116; assay type: cell-based; settings: in brackets after IC50; normal RPE1 relative to HCT116
Each entry below carries its reported SI (safety/selectivity index), HCT116.
# respond with the number and nothing more

* O=C(Nc1ccccc1)Nc1ccc(C(=O)/C=C2/C(=O)Nc3ccc(Cl)cc32)cc1 [Compound 12f] | 1.630
* O=C(Nc1ccccc1)Nc1cccc(C(=O)/C=C2/C(=O)Nc3ccc(Cl)cc32)c1 [Compound 12e] | 1.229
* COc1ccc2c(c1)/C(=C\C(=O)c1ccc(NC(=O)Nc3ccccc3)cc1)C(=O)N2 [Compound 12j] | 1.400
* COc1ccc2c(c1)/C(=C\C(=O)c1cccc(NC(=O)Nc3ccccc3)c1)C(=O)N2 [Compound 12i] | 1.111
* O=C(Nc1ccccc1)Nc1ccc(C(=O)/C=C2/C(=O)Nc3ccc(F)cc32)cc1 [Compound 12d] | 1.898

Recorded result, Cc1ccc2c(c1)/C(=C\C(=O)c1ccc(NC(=O)Nc3ccccc3)cc1)C(=O)N2 [Compound 12h] , SI (safety/selectivity index), HCT116: 1.523

Recorded result, O=C(Nc1ccccc1)Nc1cccc(C(=O)/C=C2/C(=O)Nc3ccccc32)c1 [Compound 12a] , SI (safety/selectivity index), HCT116: 1.022

Recorded result, O=C(Nc1ccccc1)Nc1cccc(C(=O)/C=C2/C(=O)Nc3ccc(F)cc32)c1 [Compound 12c] , SI (safety/selectivity index), HCT116: 1.483
